I'd appreciate it if you could supply Kd values for the items below.
target: Muscarinic acetylcholine receptor M2 (Homo sapiens); assay: Binding affinity to human muscarinic M2 receptor expressed in CHO-K9 cells incubated in dark measured after 60 mins by Hoechst H33342 dye based confocal plate reader assay; type: cell-based; conditions: read-out: Kd
Sequence (P08172 whole entry): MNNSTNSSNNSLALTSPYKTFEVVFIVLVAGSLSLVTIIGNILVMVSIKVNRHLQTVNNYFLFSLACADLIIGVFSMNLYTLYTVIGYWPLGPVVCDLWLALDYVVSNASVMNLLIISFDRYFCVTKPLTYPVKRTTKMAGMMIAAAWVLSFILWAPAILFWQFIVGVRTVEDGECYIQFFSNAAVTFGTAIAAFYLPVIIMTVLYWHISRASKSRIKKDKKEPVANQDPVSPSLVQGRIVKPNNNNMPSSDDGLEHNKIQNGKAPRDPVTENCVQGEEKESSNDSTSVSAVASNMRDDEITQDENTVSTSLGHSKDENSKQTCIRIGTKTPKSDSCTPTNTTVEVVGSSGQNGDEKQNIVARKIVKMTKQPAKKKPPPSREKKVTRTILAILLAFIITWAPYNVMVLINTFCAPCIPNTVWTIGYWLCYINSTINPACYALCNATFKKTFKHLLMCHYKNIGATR
Kindly answer with a numeric value in nM, unit omitted.

Kd reading for `CC1(C)C(/C=C/C=C/C=C2/N(CCCCCC(=O)NCCN3CCN(CCCCC4CCN(CC(=O)N5c6ccccc6NC(=O)c6ccccc65)CC4)CC3)c3ccc(S(=O)(=O)O)cc3C2(C)C)=[N+](CCCCS(=O)(=O)[O-])c2ccccc21.O=C(O)C(F)(F)F.O=C(O)C(F)(F)F` : 5.3

Kd reading for `CC1(C)C(/C=C/C=C/C=C2/N(CCCCCC(=O)NCc3cc(C(=O)NCCNC(=O)CCc4cn(CCCCC5CCN(CC(=O)N6c7ccccc7NC(=O)c7ccccc76)CC5)cn4)cc(C(=O)NCCNC(=O)CCc4cn(CCCCC5CCN(CC(=O)N6c7ccccc7NC(=O)c7ccccc76)CC5)cn4)c3)c3ccc(S(=O)(=O)O)cc3C2(C)C)=[N+](CCCCS(=O)(=O)[O-])c2ccccc21.O=C(O)C(F)(F)F.O=C(O)C(F)(F)F.O=C(O)C(F)(F)F` : 2.9

Kd reading for `CC1(C)C(/C=C/C=C/C=C2/N(CCCCCC(=O)NCCN3CCN(CCCCC4CCN(CC(=O)N5c6ccccc6NC(=O)c6ccccc65)CC4)CC3)c3ccccc3C2(C)C)=[N+](CCCCS(=O)(=O)[O-])c2ccccc21` : 10.8

Kd reading for `CC1(C)C(/C=C/C=C/C=C2/N(CCCCCC(=O)NCCNC(=O)CCc3cn(CCCCC4CCN(CC(=O)N5c6ccccc6NC(=O)c6ccccc65)CC4)cn3)c3ccc(S(=O)(=O)O)cc3C2(C)C)=[N+](CCCCS(=O)(=O)[O-])c2ccccc21.O=C(O)C(F)(F)F` : 12.6
